Below, each entry is listed with its recorded IC50.
ASSAY SYSTEM: IκB-α kinase
RUN DESCRIPTION: IκB-α kinase inhibitory activity, in vitro kinase assay

{"columns": ["COMPOUND", "ASSAY SYSTEM", "RESULT"],
 "data": [
  ["Cc1cccc(CNc2nc(N[C@@H](CO)C(C)C)nc3c2nnn3C(C)C)c1O", "IκB-α kinase", "55 µM"],
  ["CC[C@H](CO)Nc1nc(NCc2cc(O)c(Cl)cc2O)c2nnn(C(C)C)c2n1", "IκB-α kinase", "> 100 µM"],
  ["CC(C)n1nnc2c(Nc3cccc(Cl)c3)nc(NCCCO)nc21", "IκB-α kinase", "> 100 µM"]
]}

Reading of IC50 for CC[C@H](CO)Nc1nc(Nc2ccccc2)c2nnn(C(C)C)c2n1 with IκB-α kinase: 70 µM

Reading of IC50 for CC[C@H](CO)Nc1nc(NCc2cccc(O)c2)c2nnn(C(C)C)c2n1 with IκB-α kinase: 85 µM

Reading of IC50 for CC(C)n1nnc2c(Nc3cccc(Cl)c3)nc(NCCN)nc21 with IκB-α kinase: > 100 µM

Reading of IC50 for Cn1nnc2c(NCc3cccc(O)c3)nc(NCCO)nc21 with IκB-α kinase: 40 µM

Reading of IC50 for CC(=O)Oc1ccccc1CNc1nc(N[C@@H](CO)C(C)C)nc2c1nnn2C(C)C with IκB-α kinase: 85 µM

Reading of IC50 for Cc1cccc(CNc2nc(NCCO)nc3c2nnn3C)c1O with IκB-α kinase: > 100 µM

----------
Below, each entry is listed with its recorded pIC50.
ASSAY SYSTEM: IκB-α kinase
RUN DESCRIPTION: IκB-α kinase inhibitory activity, in vitro kinase assay
pIC50: −log10 of the molar value.

Please review the entries below; each comes with its answer.
{"columns": ["CHEMICAL STRUCTURE", "METRIC", "RESULT"],
 "data": [
  ["Cn1nnc2c(NCc3ccccc3)nc(N(CCO)CCO)nc21", "pIC50", "< 4.00"],
  ["CC[C@H](CO)Nc1nc(NCc2cccc(C)c2O)c2nnn(C(C)C)c2n1", "pIC50", 4.10],
  ["CC(C)[C@H](CO)Nc1nc(NCc2ccc(Cl)c(N)c2)c2nnn(C(C)C)c2n1", "pIC50", "< 4.00"]
]}

Reported pIC50 of CC[C@H](CO)Nc1nc(NCc2cccc(OC(C)=O)c2)c2nnn(C(C)C)c2n1 : < 4.00

Reported pIC50 of CC(C)[C@H](CO)Nc1nc(NCc2cccc(Cl)c2O)c2nnn(C(C)C)c2n1 : 4.22

Reported pIC50 of CC[C@H](CO)Nc1nc(NCc2ccccc2)c2nnn(C(C)C)c2n1 : < 4.00

Reported pIC50 of COc1cc(O)c(CNc2nc(N[C@@H](CO)C(C)C)nc3c2nnn3C(C)C)c(O)c1 : < 4.00

Reported pIC50 of CC[C@H](CO)Nc1nc(NCc2ccccc2C(C)=O)c2nnn(C(C)C)c2n1 : < 4.00

Reported pIC50 of CC[C@H](CO)Nc1nc(NCc2ccccc2OC(C)=O)c2nnn(C(C)C)c2n1 : < 4.00

Reported pIC50 of Cn1nnc2c(NCc3c(N)cccc3Cl)nc(NCCO)nc21 : 4.17

Values from patent US7816350B2
